target: HER2 kinase (intracellular domain of HER2) (Homo sapiens); construct: FLAG (N); made in house; host or cells: SF-21 insect cells infected with recombinant baculovirus BAC-HER2; test: Measurement of inhibition activity of HER2 kinase; format: biochemical; conditions: test compound 1.0 μM, poly-Glu:Tyr(4:1) substrate, [γ-32P]ATP, 25° C. 10 minutes, read-out: Inhibition rate (%) in 1.0 μM
Sequence (P04626 676-1255 limits assumed): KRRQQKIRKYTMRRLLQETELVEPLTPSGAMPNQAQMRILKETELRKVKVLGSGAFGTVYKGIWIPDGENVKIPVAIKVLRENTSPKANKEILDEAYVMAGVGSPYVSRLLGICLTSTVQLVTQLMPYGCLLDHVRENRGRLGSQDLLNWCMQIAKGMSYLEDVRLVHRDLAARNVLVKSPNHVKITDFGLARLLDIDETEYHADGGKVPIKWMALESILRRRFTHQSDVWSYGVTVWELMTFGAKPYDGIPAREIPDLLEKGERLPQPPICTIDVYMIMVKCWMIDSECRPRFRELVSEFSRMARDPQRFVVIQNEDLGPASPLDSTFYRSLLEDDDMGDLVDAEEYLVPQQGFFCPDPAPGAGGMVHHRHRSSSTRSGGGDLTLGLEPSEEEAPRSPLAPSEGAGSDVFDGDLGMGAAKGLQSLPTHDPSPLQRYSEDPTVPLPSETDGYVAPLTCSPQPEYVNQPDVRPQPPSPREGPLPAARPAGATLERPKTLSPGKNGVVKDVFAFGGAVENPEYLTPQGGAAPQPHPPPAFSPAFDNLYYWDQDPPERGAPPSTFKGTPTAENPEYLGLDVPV
measurement name: inhibition at 1 µM (%)
Express your answer in %, writing the number without its unit.

Below are worked cases with known answers.
# item smiles, target under test, readout unit, inhibition at 1 µM
records = [
    ("OCCNCc1ccc(-c2nc3c(Nc4ccc(Oc5cccc(C(F)(F)F)c5)c(Cl)c4)ncnc3s2)cc1", "HER2 kinase (intracellular domain of HER2) (Homo sapiens)", "%", 90),
    ("OCCNCc1ccc(-c2nc3c(Nc4ccc(OCc5cccc(F)c5)c(Cl)c4)ncnc3s2)cc1", "HER2 kinase (intracellular domain of HER2) (Homo sapiens)", "%", 92),
    ("O=C(CO)NCc1ccc(-c2nc3c(Nc4ccc(OCc5ccsc5)c(Cl)c4)ncnc3s2)cc1", "HER2 kinase (intracellular domain of HER2) (Homo sapiens)", "%", 87),
    ("COCCNCCc1ccc(-c2nc3c(Nc4ccc(Oc5ccc(C)nc5)c(C)c4)ncnc3s2)cc1", "HER2 kinase (intracellular domain of HER2) (Homo sapiens)", "%", 89),
]

Inquiry: Recorded inhibition at 1 µM for `COCCNCc1ccc(-c2nc3c(Nc4ccc(F)c(Cl)c4)ncnc3s2)cc1` , please?
Reply text: 96
